IC50 reference
Tested on: E. coli EV36 T7 phage lysis inhibition, OD600
assay_protocol: capsule biogenesis inhibitors via T7 lysis, dose response, EV36 K1 hybrid, OD600, round 7 (AID 624056)

compound_structure | measured_parameter | experimental_value
CCCOc1ccc(-c2cc(NC(=O)c3c(F)cc(F)cc3F)c(C(=O)O)s2)cc1 | IC50 | 530 nM

Field: IC50 (E. coli EV36 T7 phage lysis inhibition, OD600). Entry: CCCc1ccc(-c2cc(NC(=O)c3cc(Br)c(Br)o3)c(C(=O)O)s2)cc1 2350 nM

Field: IC50 (E. coli EV36 T7 phage lysis inhibition, OD600). Entry: CCCCOc1ccc(-c2cc(NC(=O)c3ccc(Br)o3)c(C(=O)O)s2)cc1 320 nM

Field: IC50 (E. coli EV36 T7 phage lysis inhibition, OD600). Entry: CCOc1ccc(-c2cc(NC(=O)c3c(F)cccc3F)c(C(=O)O)s2)cc1 410 nM

Field: IC50 (E. coli EV36 T7 phage lysis inhibition, OD600). Entry: O=C(O)c1sc(-c2ccc(OC(F)(F)F)cc2)cc1NC(=O)c1c(F)cccc1F 1360 nM

---

phage lysis inhibition reference
assay_protocol: capsule biogenesis inhibitors via T7 lysis, dose response, EV36 K1 hybrid, OD600, round 7 (AID 624056)
reported_conditions: E. coli EV36 T7 phage lysis inhibition, OD600; at 5 µM (top of the series)
Answer in %, number only, no unit symbol.

Below are worked cases with known answers.
compound_structure | phage lysis inhibition [%]
O=C(Nc1cc(-c2ccc(OC(F)(F)F)cc2)sc1C(=O)O)c1cc2ccccc2o1 | 2.17
O=C(Nc1ccncc1)c1ccc2ncsc2c1 | 126
O=C(NCc1ccncc1)c1ccc2ncsc2c1 | 123
O=C(NC1CCNCC1)c1ccc2ncsc2c1 | 121
CC(C)(C)c1ccc(-c2cc(NC(=O)c3ccc(Br)s3)c(C(=O)O)s2)cc1 | -11.6

Report phage lysis inhibition for O=C(NCCc1ccncc1)c1ccc2ncsc2c1 please. 124

Report phage lysis inhibition for O=C(Nc1cc(-c2ccc(OC(F)(F)F)cc2)sc1C(=O)O)c1cccc(F)c1 please. 75.5

---

Test system: E. coli EV36 T7 phage lysis inhibition, OD600
assay_protocol: capsule biogenesis inhibitors via T7 lysis, dose response, EV36 K1 hybrid, OD600, round 7 (AID 624056)
pIC50: −log10 of the molar value.
Give Y when the value for pIC50 is at least 6. Give N when it is less.

compound_structure | class_label
O=C(O)c1sc(-c2ccc(OCCC(F)(F)F)cc2)cc1NC(=O)c1c(F)cc(F)cc1F | Y
O=C(Nc1cc(-c2ccc(OCC(F)(F)F)cc2)sc1C(=O)O)c1ccc(Br)o1 | Y
CCOc1ccc(-c2cc(NC(=O)c3c(F)cccc3C(F)(F)F)c(C(=O)O)s2)cc1 | N
CCOc1ccc(-c2cc(NC(=O)c3c(F)cc(F)cc3F)c(C(=O)O)s2)cc1 | N
CCCCOc1ccc(-c2cc(NC(=O)c3c(F)cccc3F)c(C(=O)O)s2)cc1 | Y

Determine whether measured pIC50 meets or exceeds 6 for CCCc1ccc(-c2cc(NC(=O)c3ccc(Br)o3)c(C(=O)O)s2)cc1 Y

Determine whether measured pIC50 meets or exceeds 6 for [N-]=[N+]=NCCOc1ccc(-c2cc(NC(=O)c3c(F)cccc3F)c(C(=O)O)s2)cc1 Y

Determine whether measured pIC50 meets or exceeds 6 for O=C(Nc1cc(-c2ccc(OCCC(F)(F)F)cc2)sc1C(=O)O)c1ccc(Br)o1 Y
